Molecular target: mouse TAAR1 (Mus musculus)
Construct: expressed in transfected cells; host or cells: HEK293 (ATCC # CRL-1573), stably transfected with pIRESneo2 expression plasmid
Sequence (Q923Y8 whole entry): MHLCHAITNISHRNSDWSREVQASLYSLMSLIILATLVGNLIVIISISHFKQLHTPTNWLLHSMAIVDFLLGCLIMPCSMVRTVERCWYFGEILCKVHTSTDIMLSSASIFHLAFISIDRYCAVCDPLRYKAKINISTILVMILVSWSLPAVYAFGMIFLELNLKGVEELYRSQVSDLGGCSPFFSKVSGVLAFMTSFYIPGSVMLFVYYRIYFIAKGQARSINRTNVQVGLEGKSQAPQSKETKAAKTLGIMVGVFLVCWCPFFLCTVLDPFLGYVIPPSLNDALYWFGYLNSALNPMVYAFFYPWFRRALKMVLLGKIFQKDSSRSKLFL
Test: TAAR1 radioligand binding with [3H]-rac-2-(1,2,3,4-tetrahydro-1-naphthyl)-2-imidazoline, membranes of stably transfected HEK293 cells
Conditions: first value of the cell, read-out: Ki (μM) mouse/rat: mouse
READOUT NAME: Ki (µM)

[
  {
    "MOLECULAR STRING": "NC1=N[C@@H](CCc2ccc(NC(=O)c3cccc(F)n3)cc2)CO1",
    "TARGET OR TEST SYSTEM": "mouse TAAR1 (Mus musculus)",
    "MEASURED NUMBER": 0.0097
  },
  {
    "MOLECULAR STRING": "NC1=N[C@@H](CCc2ccc(NC(=O)CCC3CC3)cc2)CO1",
    "TARGET OR TEST SYSTEM": "mouse TAAR1 (Mus musculus)",
    "MEASURED NUMBER": 0.0074
  },
  {
    "MOLECULAR STRING": "NC1=N[C@@H](CCc2ccc(NC(=O)c3cccc(Br)n3)cc2)CO1",
    "TARGET OR TEST SYSTEM": "mouse TAAR1 (Mus musculus)",
    "MEASURED NUMBER": 0.0013
  },
  {
    "MOLECULAR STRING": "CC1(C(=O)Nc2ccc(CC[C@H]3COC(N)=N3)cc2)CC1",
    "TARGET OR TEST SYSTEM": "mouse TAAR1 (Mus musculus)",
    "MEASURED NUMBER": 0.0091
  },
  {
    "MOLECULAR STRING": "COCc1ccc(C(=O)Nc2ccc(CC[C@H]3COC(N)=N3)cc2)cc1",
    "TARGET OR TEST SYSTEM": "mouse TAAR1 (Mus musculus)",
    "MEASURED NUMBER": 0.0026
  }
]

Attribution: patent US8354441B2
